method_summary: Mouse liver microsome stability
protocol_conditions: liver microsomes
Parameter half-life: see the listing below.

compound: CC(C)(O)c1coc(S(=O)(=O)NC(=O)Nc2c3c(cc4c2CCC4)CCC3)c1 [MCC950, reference compound]
measured_property: half-life
result: > 2.42 h

Data request, read-out half-life, for CC(C)n1ccc(S(=O)(=O)NC(=O)Nc2c3c(cc4c2CCC4)CCC3)n1 [MCC7840]
> 2.42 h

* * *

method_summary: Single-dose pharmacokinetics (plasma and brain) in C57BL/6J mice
Assay type: in vivo, mouse
protocol_conditions: male, C57BL/6J, mouse; mice, oral administration 20 mg/kg, total brain concentration; read-out: Brain-to-plasma ratio
measured_property: Kp at 2 h

Data request, read-out Kp at 2 h, for CC(C)n1ccc(S(=O)(=O)NC(=O)Nc2c3c(cc4c2CCC4)CCC3)n1
~0.035
